Where do the numbers come from? From ChEMBL document CHEMBL1156482.

ASSAYED_SYSTEM: C-X-C chemokine receptor type 4 (Homo sapiens, UniProt P61073, H203A)
Sequence (P61073 whole entry H203A, the tested form may be a part): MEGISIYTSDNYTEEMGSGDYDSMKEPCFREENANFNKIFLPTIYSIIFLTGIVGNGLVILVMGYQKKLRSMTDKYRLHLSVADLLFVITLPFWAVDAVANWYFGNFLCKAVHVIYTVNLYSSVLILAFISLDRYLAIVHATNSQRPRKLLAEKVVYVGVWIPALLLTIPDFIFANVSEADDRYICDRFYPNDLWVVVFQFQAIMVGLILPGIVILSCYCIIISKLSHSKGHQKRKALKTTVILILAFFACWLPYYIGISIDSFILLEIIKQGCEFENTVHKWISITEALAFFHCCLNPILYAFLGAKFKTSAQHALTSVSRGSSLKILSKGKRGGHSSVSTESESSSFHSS
TEST: Displacement of [125I]12G5 antibody from transmembrane domain 5 of human CXCR4 H203A mutant expressed in COS7 cells
Assay type: cell-based, COS-7
READOUT_KIND: Ki (nM)
Record the value in nM, omitting the unit from your answer.

Using C-X-C chemokine receptor type 4 (Homo sapiens, UniProt P61073, H203A) as the test system, report measured Ki of c1ccc(CNCc2ccc(CN3CCCNCCNCCCNCC3)cc2)nc1 .
440

###

ASSAYED_SYSTEM: C-X-C chemokine receptor type 4 (Homo sapiens, UniProt P61073, D171N)
Sequence (P61073 whole entry D171N, the tested form may be a part): as the sequence (P61073 whole entry H203A, the tested form may be a part) above, with D171N, A203H counted along it
TEST: Displacement of [125I]12G5 antibody from transmembrane domain 4 of human CXCR4 D171N mutant expressed in COS7 cells
Type: cell-based, COS-7
READOUT_KIND: Ki (µM)
Value expressed in µM; do not type the unit.

Item c1ccc(CNCc2ccc(CN3CCCNCCNCCCNCC3)cc2)nc1 : provide Ki
3.2

###

ASSAYED_SYSTEM: C-X-C chemokine receptor type 4 (Homo sapiens, UniProt P61073, H113A)
Sequence (P61073 whole entry H113A, the tested form may be a part): as the sequence (P61073 whole entry H203A, the tested form may be a part) above, with H113A, A203H counted along it
TEST: Antagonist activity at human CXCR4 H113A mutant expressed in COS7 cells coexpressing G protein Gqi4myr assessed as inhibition of CXCL12-induced phosphatidylinositol turnover
Type: functional, cell-based, COS-7
Measured Ki of individual entries
Respond numerically; units are µM and should not be typed.

# annotated cases, reported Ki shown
- SMILES_STR: "Cc1ccc(CN2CCCNCCNCCCNCC2)cc1"
  UNIT_INFO: "µM"
  Ki: 275
- SMILES_STR: "c1ccc(CNCc2ccc(CN3CCCNCCNCCCNCC3)cc2)nc1"
  UNIT_INFO: "µM"
  Ki: 0.13

Continue with the next molecule.
Please supply the value of reported Ki for the item c1ccc(CNCc2ccc(CN3CCCNCCNCCCNCC3)cc2)cc1
18

###

ASSAYED_SYSTEM: C-X-C chemokine receptor type 4 (Homo sapiens, UniProt P61073, E288A)
TEST: Displacement of [125I]12G5 antibody from transmembrane domain 7 of human CXCR4 E288A mutant expressed in COS7 cells
Assay type: cell-based, COS-7
READOUT_KIND: Ki (µM)
Unit µM implied. Number only.

Quick one: give measured Ki for c1ccc(CNCc2ccc(CN3CCCNCCNCCCNCC3)cc2)nc1
11

###

ASSAYED_SYSTEM: C-X-C chemokine receptor type 4 (Homo sapiens, UniProt P61073, H113A)
TEST: Displacement of [125I]12G5 antibody from transmembrane domain 3 of human CXCR4 H113A mutant expressed in COS7 cells
Type: cell-based, COS-7
READOUT_KIND: pKi
Give only the number. pKi is defined as minus log10 of concentration in molar units.

For the compound c1ccc(CNCc2ccc(CN3CCCNCCNCCCNCC3)cc2)nc1 , report pKi.
5.60

###

ASSAYED_SYSTEM: C-X-C chemokine receptor type 4 (Homo sapiens, UniProt P61073, I259A)
Sequence (P61073 whole entry I259A, the tested form may be a part): as the sequence (P61073 whole entry H203A, the tested form may be a part) above, with A203H, I259A counted along it
TEST: Antagonist activity at transmembrane domain 6 of human CXCR4 I259A mutant expressed in COS7 cells coexpressing G protein Gqi4myr assessed as inhibition of CXCL12-induced phosphatidylinositol turnover
Listed below: pKi values for each entry.
// scale note: pKi = -log10(conc_M); give the bare number

Give pKi for the following molecule: c1ccc(CNCc2ccc(CN3CCCNCCNCCCNCC3)cc2)nc1
7.52

For the molecule Cc1ccc(CN2CCCNCCNCCCNCC2)cc1 , give its reported pKi.
5.60

// fetch pKi given entry c1ccc(CNCc2ccc(CN3CCCNCCNCCCNCC3)cc2)cc1
6.04
